Test system: TZ05 DNA polymerase (Thermus species Z05)
Protocol Notes: FP filter
Condition Label: as TZ3; 55C; IT50 52C
Quantity Name: Kd (pM)
Supply the numeric figure in pM, leaving out any unit text.

Problem: Returns the measured Kd for the input sequence. Input: TTCTCGGTTGGTCTCTGGCGGAGCATACACGACGTCATTCTAGCGTTTTGACGTCTTGTGTATGATTCGCTTTTCCC [ligand 22 (TQH22) / TZ3]
Solution: 9

====

Measured Target: Tth DNA polymerase (Thermus thermophilus)
Protocol Notes: FP filter
Condition Label: 50 mM Bicine pH 8.3, 90 mM KCl, 3.5 mM Mn(OAc)2, room temp
Quantity Name: pKd
# pKd: negative log10 of molar concentration; output just the value

Problem: Lab note: need pKd with Tth DNA polymerase (Thermus thermophilus) for entry TTCTCGGTTGGTCTCTGGCGGAGCNNNNNNNNNNNNNNNNNNNNNNNNNNNNNNTCTTGTGTATGATTCGCTTTTCCC [random ssDNA pool] , please look it up.
Solution: 7.15

Origin of values: patent US6183967
